Entry source: ChEMBL document CHEMBL6127079

Tested on: Cryptococcus neoformans
Assay: Antifungal activity against Cryptococcus neoformans ATCC 32719 assessed as inhibition of growth incubated for 24 hrs by two-fold serial dilution method
Type: functional
true (1) if MIC is below 20 µg/mL. false (0) if not; exact matches included in false (0).

Query string: Please state whether MIC is below 20 µg/mL for Cc1cc([N+](=O)[O-])ccc1NC(=O)C1CCN(CC(=O)Nc2ccc3c(c2)NC(=O)C2(CCNC2=O)C3)CC1 (racemic)
Result string: true (1)

Query string: Again, but for COc1ccc(NC(=O)C2CCN(CC(=O)Nc3ccc4c(c3)NC(=O)C3(CCNC3=O)C4)CC2)cc1 (racemic)
Result string: false (0)

Query string: Again, but for O=C(CN1CCC(C(=O)Nc2nc3ccccc3s2)CC1)Nc1ccc2c(c1)NC(=O)C1(CCNC1=O)C2 (racemic)
Result string: true (1)

Query string: Again, but for O=C(/C=C/C(=O)Nc1ccc2c(c1)NC(=O)C1(CCNC1=O)C2)Nc1ccc(F)c(Cl)c1 (racemic)
Result string: false (0)

Query string: Again, but for O=C(CN1CCC(C(=O)Nc2cccc(Br)c2)CC1)Nc1ccc2c(c1)NC(=O)C1(CCNC1=O)C2 (racemic)
Result string: true (1)

Query string: Again, but for CCCNC(=O)/C=C/C(=O)Nc1ccc2c(c1)NC(=O)C1(CCNC1=O)C2 (racemic)
Result string: false (0)

Query string: Again, but for O=C(/C=C/C(=O)Nc1nc2ccccc2s1)Nc1ccc2c(c1)NC(=O)C1(CCNC1=O)C2 (racemic)
Result string: true (1)

Query string: Again, but for O=C(CN1CCC(C(=O)Nc2nccs2)CC1)Nc1ccc2c(c1)NC(=O)C1(CCNC1=O)C2 (racemic)
Result string: false (0)
